target: T1, recombinant human CD40 monomer (human, UniProt P25942 21-193); experiment: BLI (Octet RED); antibody supernatant captured on protein A sensors, huCD40-monomer in solution
T1 construct: also called huCD40-monomer; soluble human CD40
T1 sequence (P25942 21-193 limits assumed): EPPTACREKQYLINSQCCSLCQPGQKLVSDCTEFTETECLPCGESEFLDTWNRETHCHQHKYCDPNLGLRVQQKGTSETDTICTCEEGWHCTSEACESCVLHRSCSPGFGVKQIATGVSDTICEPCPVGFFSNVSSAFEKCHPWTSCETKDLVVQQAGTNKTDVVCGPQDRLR
// values below are reported Kd
Respond with the bare value in nM.

Field: example entries. Status: answers known.
binder="8E8 (parental) (antibody, V domains shown, Mouse variable domains; also called 1802.3583.8E8.C10.G2; mAb 8E8) VH: QVQFQQSGAELARPGASVKLSCKASGYTFTSYWMQWVKQRPGQGLEWIGTIYPGDGDSRYNQKFKGKALLTADKSSSIAYMQLNSLASEDSAVYFCARFSLYDGYPYYFDYWGQGTTLTVSS VL: DVVMTQTPLSLPVSLGDQASISCRSSQSLVHRNGNTYLHWYLQKPGQSPKLLIYRVSNRFSGVPDRFSGSGSGTDFTLKISRVEAEDLGIYFCSQSTHFPYTFGGGTKLEIK" unit=nM quantitative_result=85
binder="12D6-23 (antibody, human IgG1, kappa, V domains shown, Humanized; IgG1f) VH: QVQLVQSGAEVKKPGASVKVSCKASGYTFTGYNMNWVRQAPGQGLEWMGNIDPYYGNTNYNQKFKGRVTMTTDTSTSTAYMELRSLRSDDTAVYYCARLGLQLYALDYWGQGTTVTVSS VL: DIVMTQTPLSLPVTPGEPASISCRSSQSLVHSNGNTYLHWYLQKPGQSPQLLIYKLTNRFFGVPDRFSGSGSGTDFTLKISRVEAEDVGVYYCSQSIHVPWTFGGGTKVEIKR" unit=nM quantitative_result=4.3
binder="12D6-03 (antibody, human IgG1, kappa, V domains shown, Humanized) VH: QVQLVQSGAEVKKPGASVKVSCKASGYTFTGYNMNWVRQAPGQGLEWMGNIDPYYGNTNYNQKFKGRVTMTTDTSTSTAYMELRSLRSDDTAVYYCARLGLQLYAMDYWGQGTTVTVSS VL: DIVMTQTPLSLPVTPGEPASISCRSSQSLVHSNGNTYLHWYLQKPGQSPQLLIYKLTNRFFGVPDRFSGSGSGTDFTLKISRVEAEDVGVYYCSQSIHVPWTFGGGTKVEIKR" unit=nM quantitative_result=4.8
binder="5G7-25 (antibody, human IgG1, kappa, V domains shown, Humanized; IgG1f) VH: QVQLVQSGAEVKKPGASVKVSCKASGYTFTDYNMDWVRQAPGQGLEWMGDINPKNAGTIYNLKFKGRVTLTVDTSTSTAYMELRSLRSDDTAVYYCVRRMDYWGQGTTVTVSS VL: DIQMTQSPSSLSASVGDRVTITCRASQDISNYLNWYQQKPGKVPKLLIYYISRLHSGVPSRFSGSGSGTDFTLTISSLQPEDVATYYCQQGNTLPYTFGGGTKVEIKR" unit=nM quantitative_result=69

Query binder follows.
Name the recorded Kd for 5G7-28 (antibody, human IgG1, kappa, name in Kabat numbering, V domains shown) VH: QVQLVQSGAEVKKPGASVKVSCKASGYTFTDYNMDWVRQAPGQGLEWMGDINPKNAGTIYNLKFKGRVTLTVDTSTSTAYMELRSLRSDDTAVYYCVRRLDYWGQGTTVTVSS VL: DIQMTQSPSSLSASVGDRVTITCRASQDISNYLNWYQQKPGKVPKLLIYYISRLHSGVPSRFSGSGSGTDFTLTISSLQPEDVATYYCQQGNTLPYTFGGGTKVEIKR .
230
